System: S. gordonii
Test: Twenty-four hour biofilm growth (crystal violet)
Format: cell-based
Measurement Setup: 10 μmol/ml
Examples of molecules with documented biofilm growth: OD 630 nm at 24 hrs divided by OD of control (control = 1) follow.
Measurement Name: biofilm growth: OD 630 nm at 24 hrs divided by OD of control (control = 1)

[[record]]
structure_as_smiles = "OC[C@H]1O[C@@](O)(CO)[C@@H](O[C@H]2O[C@H](CO)[C@@H](O)[C@H](O)[C@H]2O)[C@@H]1O"
meas_value = 1.1335

[[record]]
structure_as_smiles = "O[C@H]1[C@H](O)[C@@H](O)[C@H](O)[C@@H](O)[C@H]1O"
meas_value = 0.6384

[[record]]
structure_as_smiles = "OC[C@@H](O)[C@@H](O[C@H]1O[C@H](CO)[C@H](O)[C@H](O)[C@H]1O)[C@H](O)[C@@H](O)CO"
meas_value = 0.5959

[[record]]
structure_as_smiles = "CC(=O)N[C@H](C=O)[C@@H](O)[C@H](O)[C@H](O)CO"
meas_value = 1.0041


---

Test system: S. mitis
Test: Twenty-four hour biofilm growth (crystal violet)
Assay type: cell-based
Measurement Setup: 10 μmol/ml
Examples of compounds with documented biofilm growth: OD 630 nm at 24 hrs divided by OD of control (control = 1) follow.
Measurement Name: biofilm growth: OD 630 nm at 24 hrs divided by OD of control (control = 1)

[[record]]
structure_as_smiles = "O[C@H]1[C@H](O)[C@@H](O)[C@H](O)[C@@H](O)[C@H]1O"
target_under_test = "S. mitis"
meas_value = 1.0616

[[record]]
structure_as_smiles = "CC(=O)N[C@H](C=O)[C@@H](O)[C@H](O)[C@H](O)CO"
target_under_test = "S. mitis"
meas_value = 4.2456

[[record]]
structure_as_smiles = "OC[C@@H](O)[C@@H](O[C@H]1O[C@H](CO)[C@H](O)[C@H](O)[C@H]1O)[C@H](O)[C@@H](O)CO"
target_under_test = "S. mitis"
meas_value = 0.5919

[[record]]
structure_as_smiles = "OC[C@H]1O[C@@](O)(CO)[C@@H](O[C@H]2O[C@H](CO)[C@@H](O)[C@H](O)[C@H]2O)[C@@H]1O"
target_under_test = "S. mitis"
meas_value = 1.5717


---

Examples of compounds with documented metabolic activity: OD 492 nm divided by OD of control (control = 1) follow.
Test system: Tannerella forsythia
Test: Phenotype microarray metabolic activity
Assay type: cell-based
Measurement Setup: T forsythia; 24 hrs
Measurement Name: metabolic activity: OD 492 nm divided by OD of control (control = 1)

[[record]]
compound = "OC[C@H]1O[C@@](CO)(O[C@H]2O[C@H](CO)[C@@H](O)[C@H](O)[C@H]2O)[C@@H](O[C@H]2O[C@H](CO)[C@@H](O)[C@H](O)[C@H]2O)[C@@H]1O [D-Melezitose]"
meas_value = 1.0374

[[record]]
compound = "OC[C@@H](O)[C@@H](O[C@H]1O[C@H](CO)[C@H](O)[C@H](O)[C@H]1O)[C@H](O)[C@@H](O)CO [D-Lactitol, 4-O-α-D-galactopyranosyl-D-glucitol]"
meas_value = 1.0703

[[record]]
compound = "O[C@H]1[C@H](O)[C@@H](O)[C@H](O)[C@@H](O)[C@H]1O [Myo-Inositol]"
meas_value = 0.9597

[[record]]
compound = "CC(=O)N[C@H](C=O)[C@@H](O)[C@H](O)[C@H](O)CO [N-acetyl-D-mannosamine, 2-acetamido-2-deoxy-D-mannose]"
meas_value = 0.9666

[[record]]
compound = "OC[C@H]1O[C@@](O)(CO)[C@@H](O[C@H]2O[C@H](CO)[C@@H](O)[C@H](O)[C@H]2O)[C@@H]1O [D-Turanose]"
meas_value = 1.0435


---

System: P. gingivalis
Test: Twenty-four hour biofilm growth (crystal violet)
Format: cell-based
Measurement Setup: 10 μmol/ml
Examples of molecules with documented biofilm growth: OD 630 nm at 24 hrs divided by OD of control (control = 1) follow.
Measurement Name: biofilm growth: OD 630 nm at 24 hrs divided by OD of control (control = 1)

[[record]]
structure_as_smiles = "OC[C@H]1O[C@@](O)(CO)[C@@H](O[C@H]2O[C@H](CO)[C@@H](O)[C@H](O)[C@H]2O)[C@@H]1O"
meas_value = 0.8700

[[record]]
structure_as_smiles = "CC(=O)N[C@H](C=O)[C@@H](O)[C@H](O)[C@H](O)CO"
meas_value = 0.8031

[[record]]
structure_as_smiles = "OC[C@@H](O)[C@@H](O[C@H]1O[C@H](CO)[C@H](O)[C@H](O)[C@H]1O)[C@H](O)[C@@H](O)CO"
meas_value = 0.9616

[[record]]
structure_as_smiles = "O[C@H]1[C@H](O)[C@@H](O)[C@H](O)[C@@H](O)[C@H]1O"
meas_value = 0.9657


---

Test system: Prevotella intermedia
Test: Twenty-four hour optical density growth in BHI
Type: cell-based
Measurement Setup: P intermedia; 10 μmol/ml
Examples of compounds with documented extent of growth: maximal OD630 over 24 hr divided by maximal OD of control (control = 1) follow.
Measurement Name: extent of growth: maximal OD630 over 24 hr divided by maximal OD of control (control = 1)

[[record]]
structure_as_smiles = "O[C@H]1[C@H](O)[C@@H](O)[C@H](O)[C@@H](O)[C@H]1O"
meas_value = 0.9564

[[record]]
structure_as_smiles = "CC(=O)N[C@H](C=O)[C@@H](O)[C@H](O)[C@H](O)CO"
meas_value = 1.0261

[[record]]
structure_as_smiles = "OC[C@@H](O)[C@@H](O[C@H]1O[C@H](CO)[C@H](O)[C@H](O)[C@H]1O)[C@H](O)[C@@H](O)CO"
meas_value = 0.9210

[[record]]
structure_as_smiles = "OC[C@H]1O[C@@](O)(CO)[C@@H](O[C@H]2O[C@H](CO)[C@@H](O)[C@H](O)[C@H]2O)[C@@H]1O"
meas_value = 1.1312


---

Test system: Aggregatibacter actinomycetemcomitans
Test: Twenty-four hour optical density growth in BHI
Format: cell-based
Measurement Setup: A actinomycetemcomitans; 20 μmol/ml
Measurement Name: extent of growth: maximal OD630 over 24 hr divided by maximal OD of control (control = 1)

[[record]]
structure_as_smiles = "O[C@H]1[C@H](O)[C@@H](O)[C@H](O)[C@@H](O)[C@H]1O"
meas_value = 0.7396

[[record]]
structure_as_smiles = "OC[C@@H](O)[C@@H](O[C@H]1O[C@H](CO)[C@H](O)[C@H](O)[C@H]1O)[C@H](O)[C@@H](O)CO"
meas_value = 0.6952

[[record]]
structure_as_smiles = "OC[C@H]1O[C@@](O)(CO)[C@@H](O[C@H]2O[C@H](CO)[C@@H](O)[C@H](O)[C@H]2O)[C@@H]1O"
meas_value = 0.8672

[[record]]
structure_as_smiles = "CC(=O)N[C@H](C=O)[C@@H](O)[C@H](O)[C@H](O)CO"
meas_value = 0.9405


---

Test system: A. viscosus
Test: Twenty-four hour biofilm growth (crystal violet)
Type: cell-based
Measurement Setup: 5 μmol/ml
Measurement Name: biofilm growth: OD 630 nm at 24 hrs divided by OD of control (control = 1)

[[record]]
structure_as_smiles = "OC[C@@H](O)[C@@H](O[C@H]1O[C@H](CO)[C@H](O)[C@H](O)[C@H]1O)[C@H](O)[C@@H](O)CO"
meas_value = 0.6832

[[record]]
structure_as_smiles = "OC[C@H]1O[C@@](O)(CO)[C@@H](O[C@H]2O[C@H](CO)[C@@H](O)[C@H](O)[C@H]2O)[C@@H]1O"
meas_value = 0.1692

[[record]]
structure_as_smiles = "O[C@H]1[C@H](O)[C@@H](O)[C@H](O)[C@@H](O)[C@H]1O"
meas_value = 0.8136

[[record]]
structure_as_smiles = "CC(=O)N[C@H](C=O)[C@@H](O)[C@H](O)[C@H](O)CO"
meas_value = 0.8126


---

Examples of compounds with documented extent of growth: maximal OD630 over 24 hr divided by maximal OD of control (control = 1) follow.
System: Actinomyces naeslundii
Test: Twenty-four hour optical density growth in BHI
Format: cell-based
Measurement Setup: A naeslundii; 25 μmol/ml
Measurement Name: extent of growth: maximal OD630 over 24 hr divided by maximal OD of control (control = 1)

[[record]]
structure_as_smiles = "OC[C@@H](O)[C@@H](O[C@H]1O[C@H](CO)[C@H](O)[C@H](O)[C@H]1O)[C@H](O)[C@@H](O)CO"
meas_value = 1.0686

[[record]]
structure_as_smiles = "CC(=O)N[C@H](C=O)[C@@H](O)[C@H](O)[C@H](O)CO"
meas_value = 0.8535

[[record]]
structure_as_smiles = "OC[C@H]1O[C@@](O)(CO)[C@@H](O[C@H]2O[C@H](CO)[C@@H](O)[C@H](O)[C@H]2O)[C@@H]1O"
meas_value = 0.9441

[[record]]
structure_as_smiles = "O[C@H]1[C@H](O)[C@@H](O)[C@H](O)[C@@H](O)[C@H]1O"
meas_value = 1.0000

